Data provenance: patent US20210277015A1

Molecular target: OGA (Homo sapiens, UniProt O60502)
Construct: endogenous in cells; host or cells: HEK293 cells inducible for P301L mutant human Tau (isoform 2N4R)
Assay: OGA cellular assay (ICC detection of O-GlcNAcylated proteins in HEK293 cells inducible for P301L mutant human Tau)
Type: cell-based
Details: HEK293 cells inducible for P301L mutant human Tau; maximum defined by Thiamet G at 200 uM
experimental.readout: Cellular Emax (%)

> print(dat)
                                   compound  experimental.readout  result
1  Cc1cc(O[C@@H]2CCN(C(C)c3ccc4c(n3)OCCO4)C2)cc(C)n1 (single isomer, unassigned) [Product 74]     Cellular Emax (%)      −9

I = Cc1cc(C[C@@H]2CCN([C@H](C)c3ccc4c(n3)OCCO4)C2)cc(C)n1 (single isomer, unassigned) [Product 104]
II = Cc1cc(OC[C@]2(C)CCN([C@H](C)c3ccc4c(n3)OCCO4)C2)cc(C)n1 (single isomer, unassigned) [Product 102]
III = Cc1cc(OC[C@]2(C)CCN([C@H](C)c3ccc4c(n3)OCCO4)C2)cc(C)n1 (single isomer, unassigned) [Product 100]
Q: Arrange these 3 compounds in increasing order of Cellular Emax (%). Please express your ranking as an ordered list of the labels.
A: III, II, I

###

Biological target: recombinant human Meningioma Expressed Antigen 5 (MGEA5), also referred to as O-GlcNAcase (OGA) (Homo sapiens)
Construct: Full length OGA enzyme was purchased at OriGene (cat #TP322411); purchased OriGene TP322411
Assay: OGA biochemical assay (inhibition of FM-GlcNAc hydrolysis, fluorescence)
Conditions: FM-GlcNAc substrate, maximal effect
experimental.readout: Enzymatic Emax (%)

Completed entries (count: 3):
> print(dat)
                                   compound  result
1  COc1cc(C[C@@H]2CCN([C@H](C)c3ccc4c(n3)OCCO4)C2)cc(C)n1 (single isomer, unassigned)      90
2  Cc1cc(O[C@H]2CCN(C(C)c3ccc4c(n3)OCCO4)C2)cc(C)n1 (single isomer, unassigned) [Product 72]      21
3  COc1cc(C[C@H]2CCN(C(C)c3cc4c(cc3F)OCCO4)C2)cc(C)n1 (single isomer, unassigned)     102

1 = Cc1cnc(C[C@H]2CCN(C(C)c3ccc4c(n3)OCCO4)C2)c(C)n1 (single isomer, unassigned) [Product 25]
2 = Cc1cc(OC[C@]2(C)CCN([C@H](C)c3ccc4c(n3)OCCO4)C2)cc(C)n1 (single isomer, unassigned) [Product 103]
3 = Cc1cc(O[C@@H]2CCN(C(C)c3ccc4c(n3)OCCO4)C2)cc(C)n1 (single isomer, unassigned) [Product 74]
Q: Arrange these 3 compounds in increasing order of Enzymatic Emax (%). Please express your ranking as an ordered list of the labels.
A: 2, 3, 1

I = Cc1cc(O[C@H]2CCN(C(C)c3ccc4c(n3)OCCO4)C2)cc(C)n1 (single isomer, unassigned) [Product 71]
II = Cc1cnc(C[C@H]2CCN(C(C)c3cc4c(cc3F)OCCO4)C2)c(C)n1 (single isomer, unassigned) [Product 97]
Q: Dear colleague, could you let me know whether I or II has the lower recorded Enzymatic Emax (%)? Thanks. Reply briefly: the label of your chosen item.
A: II
(II: 37%, I: 99%)

1 = CC(c1cc2c(cc1F)OCCO2)N1CC[C@H](Cc2ncc(F)cc2F)C1 (single isomer, unassigned) [Product 29]
2 = Cc1cnc(C[C@H]2CCN(C(C)c3ccc4c(n3)OCCO4)C2)c(C)n1 (single isomer, unassigned) [Product 26]
Q: Form field 'greater Enzymatic Emax (%)' accepts 1 or 2 ; which applies? Reply briefly: the label of your chosen item.
A: 1
(1: 102%, 2: 35%)

###

Molecular target: recombinant human Meningioma Expressed Antigen 5 (MGEA5), also referred to as O-GlcNAcase (OGA) (Homo sapiens, UniProt O60502)
Construct: Full length OGA enzyme was purchased at OriGene (cat #TP322411); purchased OriGene TP322411
Test: OGA biochemical assay (inhibition of FM-GlcNAc hydrolysis, fluorescence)
Conditions: FM-GlcNAc substrate, 6 h at room temperature, read-out: Enzymatic hOGA, pIC50 (converted)
experimental.readout: IC50 (nM)

1 = Cc1cc(C[C@H]2CCN([C@@H](C)c3cc4c(cc3F)OCCO4)C2)cc(C)n1
2 = Cc1cc(CC2(C)CCN(C(C)c3ccc4c(n3)OCCO4)C2)cc(C)n1 (stereo not shown) [Product 59]
3 = COc1cc(C[C@@H]2CCN([C@H](C)c3ccc4c(n3)OCCO4)C2)cc(C)n1 (single isomer, unassigned) [Product 106]
4 = Cc1cnc(C[C@H]2CCN(C(C)c3ccc4c(n3)OCCO4)C2)c(C)n1 (stereo partly shown) [Product 24]
Q: Thanks in advance: please rank these 4 entries by IC50, highest to lowest. Please express your ranking as an ordered list of the labels.
A: 2, 4, 3, 1
(2: 398 nM, 4: 251 nM, 3: 79.4 nM, 1: 15.8 nM)

###

Molecular target: recombinant human Meningioma Expressed Antigen 5 (MGEA5), also referred to as O-GlcNAcase (OGA) (Homo sapiens, UniProt O60502)
Construct: Full length OGA enzyme was purchased at OriGene (cat #TP322411); purchased OriGene TP322411
Experiment: OGA biochemical assay (inhibition of FM-GlcNAc hydrolysis, fluorescence)
Conditions: FM-GlcNAc substrate, 6 h at room temperature, read-out: Enzymatic hOGA, pIC50 (converted)
experimental.readout: IC50 (nM)

Completed entries (count: 3):
> print(dat)
                                   molecule  experimental.readout  result
1  Cc1cc(C[C@H]2CCN([C@@H](C)c3ccc4c(c3)OCC4)C2)cc(C)n1 (single isomer, unassigned) [Product 14]                  IC50    50.1
2  Cc1cc(OC[C@H]2CCN(C(C)c3ccc4c(n3)OCCO4)C2)cc(C)n1 (stereo partly shown) [Product 47]                  IC50     631
3  CC(c1ccc2c(n1)OCCO2)N1CC[C@H](Cc2ncc(F)cc2F)C1 (single isomer, unassigned) [Product 23]                  IC50     398

I = Cc1cc(C[C@@H]2CCN(C(C)c3ccc4c(n3)OCCO4)C2)cc(C)n1 (mixture of isomers) [Product 78]
II = COc1cc(C[C@H]2CCN(C(C)c3cnc4c(c3)C(=O)N(C)CC4)C2)cc(C)n1 (stereo partly shown) [Product 33]
III = Cc1cc(O[C@@H]2CCN(C(C)c3ccc4c(n3)OCCO4)C2)cc(C)n1 (single isomer, unassigned) [Product 75]
Q: Arrange these 3 molecules in increasing order of IC50. Please express your ranking as an ordered list of the labels.
A: III, I, II
(III: 39.8 nM, I: 63.1 nM, II: 126 nM)

###

Target: recombinant human Meningioma Expressed Antigen 5 (MGEA5), also referred to as O-GlcNAcase (OGA) (Homo sapiens, UniProt O60502)
Construct: Full length OGA enzyme was purchased at OriGene (cat #TP322411); purchased OriGene TP322411
Sequence (O60502 1-916): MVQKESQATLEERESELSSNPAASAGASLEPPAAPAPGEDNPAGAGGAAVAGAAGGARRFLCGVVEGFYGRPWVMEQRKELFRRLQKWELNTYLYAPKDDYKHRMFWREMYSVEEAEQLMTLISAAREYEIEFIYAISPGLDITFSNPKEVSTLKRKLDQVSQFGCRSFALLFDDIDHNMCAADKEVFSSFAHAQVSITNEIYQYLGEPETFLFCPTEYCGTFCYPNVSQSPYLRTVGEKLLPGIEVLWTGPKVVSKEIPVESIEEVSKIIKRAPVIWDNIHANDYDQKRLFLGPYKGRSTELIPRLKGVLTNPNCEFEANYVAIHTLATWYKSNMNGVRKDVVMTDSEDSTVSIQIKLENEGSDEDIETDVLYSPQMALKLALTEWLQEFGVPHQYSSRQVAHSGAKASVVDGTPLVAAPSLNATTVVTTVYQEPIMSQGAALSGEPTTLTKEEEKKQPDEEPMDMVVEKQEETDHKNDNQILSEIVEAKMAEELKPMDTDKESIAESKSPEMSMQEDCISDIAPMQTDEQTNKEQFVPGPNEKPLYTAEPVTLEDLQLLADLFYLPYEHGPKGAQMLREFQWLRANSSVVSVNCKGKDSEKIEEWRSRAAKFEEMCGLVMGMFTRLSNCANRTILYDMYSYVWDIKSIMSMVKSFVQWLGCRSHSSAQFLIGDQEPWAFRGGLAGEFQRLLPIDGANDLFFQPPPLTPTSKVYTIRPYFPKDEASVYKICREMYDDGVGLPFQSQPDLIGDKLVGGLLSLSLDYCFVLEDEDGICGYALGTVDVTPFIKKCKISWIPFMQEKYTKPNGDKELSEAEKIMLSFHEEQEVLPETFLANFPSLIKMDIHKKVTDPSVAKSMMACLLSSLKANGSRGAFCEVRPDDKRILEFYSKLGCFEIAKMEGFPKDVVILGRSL
Test: OGA biochemical assay (inhibition of FM-GlcNAc hydrolysis, fluorescence)
Conditions: FM-GlcNAc substrate, 6 h at room temperature, read-out: Enzymatic hOGA, pIC50 (converted)
experimental.readout: IC50 (nM)

Completed entries (count: 2):
> print(dat)
                                   molecule  experimental.readout  result
1  CC(c1ccc2c(n1)OCCO2)N1CC[C@H](Cc2ncc(F)cc2F)C1 (some centres unmarked) [Product 21]                  IC50     631
2  COc1cc(C[C@H]2CN(C(C)c3ccc4c(n3)OCCO4)C[C@@H]2C)cc(C)n1 (mixture of isomers)                  IC50     158

a = COc1cc(C[C@H]2CCN([C@H](C)c3cnc4c(c3)C(=O)N(C)CC4)C2)cc(C)n1
b = Cc1cc(C[C@H]2CCN(C(C)c3ccc4c(n3)OCCO4)C2)cc(C(F)(F)F)n1 (some centres unmarked)
Q: Form field 'greater IC50' accepts a or b ; which applies? Reply briefly: the label of your chosen item.
A: a

I = Cc1cc(O[C@@H]2CCN(C(C)c3nc4c(cc3F)OCCO4)C2)cnc1C (some centres unmarked)
II = COc1cc(C[C@H]2CN([C@H](C)c3ccc4c(n3)OCCO4)C[C@@H]2C)cc(C)n1 (stereo in doubt)
Q: Dear colleague, could you let me know whether I or II has the lower recorded IC50? Thanks. Reply briefly: the label of your chosen item.
A: II
